compounds and their reported melting point

[
  {
    "compound": "CCOC(CC(N)=O)OCC",
    "melting point": "51 to 53 °C"
  },
  {
    "compound": "CC(C)CC1CCC(=O)NC1=O (stereo not drawn)",
    "melting point": "129 to 131 °C"
  },
  {
    "compound": "CC(=NO)c1ccc(OCc2ccccc2C)cc1",
    "melting point": "153 to 155 °C"
  }
]

---

molecules and their reported melting point
measure name: melting point

[
  {
    "molecule": "CC(N)c1ccc(-n2ccnc2)cc1 (stereo unspecified)",
    "obs value": "50 to 52 °C"
  },
  {
    "molecule": "CCn1cc(N2C(=O)C=CC2=O)cn1",
    "obs value": "92 to 94 °C"
  },
  {
    "molecule": "NC(=O)CC1CC2CCC1C2 (stereo unspecified)",
    "obs value": "152 to 154 °C"
  },
  {
    "molecule": "O=Cc1ccccc1OCC(=O)N1CCCC1",
    "obs value": "112 to 114 °C"
  },
  {
    "molecule": "Cc1c(C(=O)O)cnn1-c1ccc(Br)cc1",
    "obs value": "211 to 213 °C"
  },
  {
    "molecule": "CCOC(=O)c1cc(Cl)ccc1[N+](=O)[O-]",
    "obs value": "37 to 39 °C"
  },
  {
    "molecule": "COc1cc(C=CC(=O)O)ccc1F",
    "obs value": "211 to 213 °C"
  },
  {
    "molecule": "NC(=O)c1cccc(CS)n1",
    "obs value": "61 to 63 °C"
  },
  {
    "molecule": "O=C(O)c1c[nH]c2cc(Cl)ccc12",
    "obs value": "219 to 221 °C"
  },
  {
    "molecule": "O=C(O)c1cnc(-c2ccc(Cl)s2)s1",
    "obs value": "235 to 237 °C"
  },
  {
    "molecule": "O=C(O)CNC(=O)NC1CC1",
    "obs value": "179 to 181 °C"
  },
  {
    "molecule": "O=S(=O)(NCCOc1ncc(C(F)(F)F)cc1Cl)c1c(F)cccc1F",
    "obs value": "110 to 112 °C"
  },
  {
    "molecule": "COc1ccc(Cn2cnc(N)n2)cc1",
    "obs value": "129 to 131 °C"
  },
  {
    "molecule": "CCCc1nc(N)sc1CC",
    "obs value": "53 to 55 °C"
  },
  {
    "molecule": "Nc1cccc(CN2CCSCC2)c1",
    "obs value": "87 to 89 °C"
  },
  {
    "molecule": "Cc1noc(C2CC2)c1C(=O)O",
    "obs value": "164 to 166 °C"
  }
]
